assay_comment: Binding affinity to p38
quantity: IC50 (µM)
Numeric answer only, unit µM assumed.

{"smiles_code": "O=C(CS(=O)(=O)c1ccc(Cl)cc1)N/N=C/c1cc(C(=O)O)c(Nc2ccc(I)cc2F)c(F)c1F", "IC50, µM": 10}

API: the following record is the query input.
query: For the molecule `O=C(N/N=C/c1cc(C(=O)O)c(Nc2ccc(I)cc2F)c(F)c1F)c1ccc(CO)o1` , give its measured IC50 value.
result: 5

----------
Measured IC50 accompanies every entry in the list below.
measured_on: UniProtKB P06239
Sequence (P06239 whole entry): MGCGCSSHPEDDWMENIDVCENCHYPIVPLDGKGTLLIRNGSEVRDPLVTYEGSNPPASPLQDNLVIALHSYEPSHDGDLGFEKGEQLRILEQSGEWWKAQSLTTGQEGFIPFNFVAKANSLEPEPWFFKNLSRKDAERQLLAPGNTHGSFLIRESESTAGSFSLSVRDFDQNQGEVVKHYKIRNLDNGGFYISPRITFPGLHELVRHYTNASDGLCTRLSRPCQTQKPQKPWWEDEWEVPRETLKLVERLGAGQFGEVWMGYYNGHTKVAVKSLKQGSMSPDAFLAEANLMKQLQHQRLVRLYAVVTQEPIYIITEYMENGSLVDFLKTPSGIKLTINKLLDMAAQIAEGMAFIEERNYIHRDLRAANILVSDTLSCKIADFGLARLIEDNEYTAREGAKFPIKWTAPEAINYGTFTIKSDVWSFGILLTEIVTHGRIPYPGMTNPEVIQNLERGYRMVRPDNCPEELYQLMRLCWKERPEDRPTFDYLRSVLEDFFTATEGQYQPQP

{"smiles_code": "NC(=O)C[C@H](N)C(=O)NCc1cc(C(=O)O)c(Nc2ccc(I)cc2F)c(F)c1F", "observed_value": "> 30 µM"}

API: the following record is the query input.
query: Enter IC50 (test system UniProtKB P06239) for `CS(=O)(=O)c1ccc(CNCc2cc(C(=O)O)c(Nc3ccc(I)cc3F)c(F)c2F)cc1`
result: > 30 µM
